B1: Hairpin Ribozyme (parent)
chain: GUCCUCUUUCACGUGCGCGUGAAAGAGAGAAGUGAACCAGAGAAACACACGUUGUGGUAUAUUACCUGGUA

# Variants of: B1
# measurement-notes: self-cleavage, relative activity (ratio to wild type); higher = more cleavage; co-transcriptional
readout-kind: self-cleavage

What does the data say about its self-cleavage? Entry: U5C A23C
0.692
